test system: P. falciparum 3D7 parasites; experiment: P. falciparum growth inhibition assay, 1-cycle (72 h treatment), SYBR DNA staining (library screen at 2 μg/mL and dose-response); assay type: cell-based, Plasmodium falciparum; conditions: Plasmodium falciparum, 3D7; P. falciparum, 72 h, parasite screen 2 μg/mL, % growth, replicate 1; read-out: Pf_72h_%Growth_Rep1
Label NO if activity at 2 µg/mL falls below 20%; label YES in every other case.

Example cases with answers are listed next.
COc1ccc(C[C@H](N)C(=O)N[C@H]2[C@@H](O)[C@H](n3cnc4c(N(C)C)ncnc43)O[C@@H]2CO)cc1 ... NO
COc1cc(C)c2c(c1C=O)Oc1c(c(C)c(O)c3c1C(O)OC3=O)OC2=O (stereo not shown) ... YES
C[C@@H]1C[C@H]2O[C@@H]2/C=C\C=C\C(=O)Cc2c(Cl)c(O)cc(O)c2C(=O)O1 ... YES
O=C(O)c1ccc[nH]1 ... YES
CC[C@H]1OC(=O)[C@H](C)[C@@H](O[C@H]2C[C@@](C)(OC)[C@@H](O)[C@H](C)O2)[C@H](C)[C@@H](O[C@@H]2O[C@H](C)C[C@H](N(C)C)[C@H]2O)[C@](C)(O)C[C@@H](C)/C(=N\OCOCCOC)[C@H](C)[C@@H](O)[C@]1(C)O [Roxithromycin, reference compound] ... YES
Nc1ncnc2c1ncn2[C@@H]1O[C@H](C[C@@H](N)CC[C@H](N)C(=O)O)[C@@H](O)[C@H]1O [sinefungin, reference compound] ... NO

Task item: Say whether CC1(C)CCC[C@]2(C)[C@@H](C=O)C(C=O)=CC[C@@H]12 shows activity at 2 µg/mL of 20% or more.
Reply: NO

Task item: Say whether C=C[C@]1(C)C[C@@H](OC(=O)CS[C@@H]2C[C@H]3CC[C@@H](C2)N3C)[C@]2(C)[C@H](C)CC[C@]3(CCC(=O)[C@H]32)[C@@H](C)[C@@H]1O [Retapamulin, reference compound] shows activity at 2 µg/mL of 20% or more.
Reply: NO

Task item: Say whether CCCC[C@@]1(OC(=O)CCC(=O)O)CC[C@]2(CC[C@H](C)[C@@H](C/C=C(C)/C=C/[C@H](O)[C@@H](C)/C=C/C(=O)O)O2)O[C@H]1/C=C/C(C)=C/C(=O)O shows activity at 2 µg/mL of 20% or more.
Reply: YES

Task item: Say whether CC/C=C\[C@H](O)[C@H](O)C1=C(C)C(=O)[C@]2(O1)C(=O)N[C@@](OC)(C(=O)c1ccccc1)[C@@H]2O shows activity at 2 µg/mL of 20% or more.
Reply: YES

Task item: Say whether C=CC(C)(C)[C@@]12C[C@H]3C(=O)N/C(=C/c4c[nH]cn4)C(=O)N3[C@@H]1Nc1ccccc12 shows activity at 2 µg/mL of 20% or more.
Reply: YES

Task item: Say whether O=C1NCc2nc3ccccc3c(=O)n2-c2ccccc21 shows activity at 2 µg/mL of 20% or more.
Reply: YES

Task item: Say whether CC1(C)C[C@]23[C@@H]4COC(=O)[C@H]2CC[C@H]1[C@@H]3CC4=O shows activity at 2 µg/mL of 20% or more.
Reply: NO
